- Target Desc: CD33 (Sino Biological, Cat #12238-H08H) (UniProt P20138 18-259)
- Sequence (P20138 18-259 limits assumed): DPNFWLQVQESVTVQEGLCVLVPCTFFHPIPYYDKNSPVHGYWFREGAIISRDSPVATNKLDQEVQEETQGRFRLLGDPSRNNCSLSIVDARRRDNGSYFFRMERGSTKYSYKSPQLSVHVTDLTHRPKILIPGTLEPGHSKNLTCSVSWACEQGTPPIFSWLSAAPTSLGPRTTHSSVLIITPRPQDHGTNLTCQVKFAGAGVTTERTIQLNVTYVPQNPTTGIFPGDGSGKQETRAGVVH
- Test Description: BLI, IgG captured on anti-human Fc sensor, 50 nM CD33, pH 7.4 vs pH 5.4
Recorded Endpoint: binding result

[[record]]
binder = "MYT2644 (antibody, V domains shown, IgG; IMGN779 VL variant #28 (L98H)) VH: QVQLQQPGAEVVKPGASVKMSCKASGYTFTSYYIHWIKQTPGQGLEWVGVIYPGNDDISYNQKFQGKATLTADKSSTTAYMQLSSLTSEDSAVYYCAREVRLRYFDVWGQGTTVTVSS VL: EIVLTQSPGSLAVSPGERVTMSCKSSQSVFFSSSQKNYLAWYQQIPGQSPRLLIYWASTRESGVPDRFTGSGSGTDFTLTISSVQPEDLAIYYCHQYHSSRTFGQGTKLEIK"
value_observed = "binds"

[[record]]
binder = "MYT1230 (antibody, V domains shown, IgG; IMGN779 VH variant #18 (D57H)) VH: QVQLQQPGAEVVKPGASVKMSCKASGYTFTSYYIHWIKQTPGQGLEWVGVIYPGNDHISYNQKFQGKATLTADKSSTTAYMQLSSLTSEDSAVYYCAREVRLRYFDVWGQGTTVTVSS VL: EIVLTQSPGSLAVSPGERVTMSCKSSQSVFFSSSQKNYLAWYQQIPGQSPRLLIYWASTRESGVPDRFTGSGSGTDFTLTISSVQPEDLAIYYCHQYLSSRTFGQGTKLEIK"
value_observed = "binds"

[[record]]
binder = "MYT2658 (antibody, V domains shown, IgG; vadastuximab VL variant #6 (I29H)) VH: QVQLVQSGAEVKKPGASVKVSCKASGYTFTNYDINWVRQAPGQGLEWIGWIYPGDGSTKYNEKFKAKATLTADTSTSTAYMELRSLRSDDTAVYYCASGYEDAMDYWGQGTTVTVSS VL: DIQMTQSPSSLSASVGDRVTINCKASQDHNSYLSWFQQKPGKAPKTLIYRANRLVDGVPSRFSGSGSGQDYTLTISSLQPEDFATYYCLQYDEFPLTFGGGTKVEIK"
value_observed = "binds"

